testSystem: rat mGlu2 (Rattus norvegicus (Rat))
methodSummary: mGlu2 Ca2+ flux assay
Type: cell-based
conditionLabel: amplitude of response in the presence of 30 μM test compound as percentage of maximal response to glutamate; read-out: rat mGlu2 Glu max
Procedure: Gα15 HEK293 cells stably expressing rat mGlu2 were plated in black-walled, clear-bottomed, poly-D-lysine coated 384-well plates in 20 μL of assay medium (DMEM containing 10% dialyzed FBS, 20 mM HEPES, and 1 mM sodium pyruvate) at a density of 12K cells/well. […] Ca^2+ flux was measured using the Functional Drug Screening System (FDSS7000, Hamamatsu, Japan). […] Calcium fluorescence measures were recorded as fold over basal fluorescence; raw data was then normalized to the maximal response to glutamate. […]
resultType: remaining activity at 30 µM (%)
Record the value in %, omitting the unit from your answer.

Record excerpt, results attached:
compound=NC(=O)c1cc(-c2ccc(F)cc2)c(OCc2cccc(Br)c2F)cn1 testsystem="rat mGlu2 (Rattus norvegicus (Rat))" resulttype="remaining activity at 30 µM" quantitativeresult=2.19
compound=NC(=O)c1cc(-c2ccc(F)cc2)c(NCCN2CCOCC2)cn1 testsystem="rat mGlu2 (Rattus norvegicus (Rat))" resulttype="remaining activity at 30 µM" quantitativeresult=-4.31
compound=Cc1cc(COc2cnc(C#N)cc2-c2ccc(F)cc2)ccn1 testsystem="rat mGlu2 (Rattus norvegicus (Rat))" resulttype="remaining activity at 30 µM" quantitativeresult=47.5
compound=NC(=O)c1cc(-c2ccc(F)cc2)c(OC2CCN(c3ccnc(C(F)(F)F)c3)CC2)cn1 testsystem="rat mGlu2 (Rattus norvegicus (Rat))" resulttype="remaining activity at 30 µM" quantitativeresult=4.5
compound="Cc1ncc(OC(C)COc2cnc(C(N)=O)cc2-c2ccc(F)cc2)cn1 (stereo not drawn)" testsystem="rat mGlu2 (Rattus norvegicus (Rat))" resulttype="remaining activity at 30 µM" quantitativeresult=8.04

rat mGlu2 (Rattus norvegicus (Rat)) assay, compound N#Cc1cc(-c2ccc(F)cc2)c(OCCOc2cccnc2)cn1 , recorded remaining activity at 30 µM = 39

rat mGlu2 (Rattus norvegicus (Rat)) assay, compound NC(=O)c1cc(-c2ccc(F)cc2)c(OCc2cccnn2)cn1 , recorded remaining activity at 30 µM = -0.08

rat mGlu2 (Rattus norvegicus (Rat)) assay, compound NC(=O)c1cc(-c2ccc(F)cc2)c(OCc2ccncc2)cn1 , recorded remaining activity at 30 µM = 0.42

rat mGlu2 (Rattus norvegicus (Rat)) assay, compound NC(=O)c1cc(-c2ccc(F)cc2)c(OCc2cc(F)cc(Br)c2)cn1 , recorded remaining activity at 30 µM = 3.54

rat mGlu2 (Rattus norvegicus (Rat)) assay, compound CC(COc1cnc(C(N)=O)cc1-c1ccc(F)cc1)Oc1cccnc1 (stereo not drawn) , recorded remaining activity at 30 µM = 0.37

rat mGlu2 (Rattus norvegicus (Rat)) assay, compound N#Cc1cc(-c2ccc(F)cc2)c(NCC2CCOCC2)cn1 , recorded remaining activity at 30 µM = 5.12

rat mGlu2 (Rattus norvegicus (Rat)) assay, compound Cc1ccc(COc2cnc(C(N)=O)cc2-c2cnn(C)c2)cn1 , recorded remaining activity at 30 µM = 46.7

rat mGlu2 (Rattus norvegicus (Rat)) assay, compound NC(=O)c1cc(-c2ccc(F)cc2)c(OCCOc2cccc(Br)c2)cn1 , recorded remaining activity at 30 µM = 26.5

rat mGlu2 (Rattus norvegicus (Rat)) assay, compound N#Cc1cc(-c2ccc(F)cc2)c(OCc2ccnc(C(F)(F)F)c2)cn1 , recorded remaining activity at 30 µM = 37.9

rat mGlu2 (Rattus norvegicus (Rat)) assay, compound NC(=O)c1cc(-c2ccc(C(F)(F)F)nc2)c(OCc2cc(F)cc(F)c2)cn1 , recorded remaining activity at 30 µM = 35.1

----------
remaining activity at 30 µM overview
testSystem: rat mGlu2 (Rattus norvegicus (Rat), UniProt P31421)
Sequence (P31421 19-872): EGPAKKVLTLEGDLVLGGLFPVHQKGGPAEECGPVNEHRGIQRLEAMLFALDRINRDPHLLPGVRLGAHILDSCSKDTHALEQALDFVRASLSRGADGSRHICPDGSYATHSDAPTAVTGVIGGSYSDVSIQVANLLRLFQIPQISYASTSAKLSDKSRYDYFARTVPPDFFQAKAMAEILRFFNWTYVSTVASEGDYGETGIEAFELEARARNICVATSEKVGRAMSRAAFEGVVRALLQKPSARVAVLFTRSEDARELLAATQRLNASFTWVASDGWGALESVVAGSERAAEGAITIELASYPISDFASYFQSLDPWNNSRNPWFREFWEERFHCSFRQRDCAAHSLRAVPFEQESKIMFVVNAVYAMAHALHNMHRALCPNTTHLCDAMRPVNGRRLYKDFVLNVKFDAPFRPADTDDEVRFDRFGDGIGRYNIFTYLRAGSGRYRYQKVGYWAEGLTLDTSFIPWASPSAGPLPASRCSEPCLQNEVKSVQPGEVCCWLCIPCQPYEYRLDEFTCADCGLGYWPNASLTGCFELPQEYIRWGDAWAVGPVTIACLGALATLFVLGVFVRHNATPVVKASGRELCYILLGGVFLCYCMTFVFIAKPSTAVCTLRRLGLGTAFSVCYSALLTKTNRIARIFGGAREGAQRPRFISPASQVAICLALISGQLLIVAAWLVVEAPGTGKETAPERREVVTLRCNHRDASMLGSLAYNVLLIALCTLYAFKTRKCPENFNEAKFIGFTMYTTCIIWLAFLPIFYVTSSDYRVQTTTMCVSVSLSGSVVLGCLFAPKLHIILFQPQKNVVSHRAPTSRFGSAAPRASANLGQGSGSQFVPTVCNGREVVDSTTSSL
methodSummary: mGlu2 Ca2+ flux assay
Assay type: cell-based
conditionLabel: amplitude of response in the presence of 30 μM test compound as percentage of maximal response to glutamate; read-out: rat mGlu2 Glu max
Write the numeric value and follow it with the unit.

Record excerpt, results attached:
molecule=N#Cc1cc(-c2ccc(F)cc2)c(NCCN2CCOCC2)cn1 result=47.5%
molecule=C[C@@H]1CN(CCOc2cnc(C(N)=O)cc2-c2ccc(F)cc2)C[C@H](C)O1 result=22.8%
molecule="CC1CN(CCCOc2cnc(C(N)=O)cc2-c2ccc(F)cc2)CCO1 (stereo not shown)" result=22%

Briefly, remaining activity at 30 µM measured for NC(=O)c1cc(-c2ccc(F)cc2)c(OCCCN2CCOCC2)cn1 : 46.8%

Briefly, remaining activity at 30 µM measured for COc1cc(COc2cnc(C(N)=O)cc2-c2ccc(F)cc2)ccn1 : 2.17%

Briefly, remaining activity at 30 µM measured for Cc1ncc(OCCOc2cnc(C#N)cc2-c2ccc(F)cc2)cn1 : 30.2%

Briefly, remaining activity at 30 µM measured for CC1(C)CN(CCCOc2cnc(C(N)=O)cc2-c2ccc(F)cc2)CCO1 : 0.97%

Briefly, remaining activity at 30 µM measured for C[C@@H]1CN(Cc2cnc(C(N)=O)cc2-c2ccc(F)cc2)C[C@H](C)O1 : 0.52%

Briefly, remaining activity at 30 µM measured for N#Cc1cccc(COc2cnc(C(N)=O)cc2-c2ccc(F)cc2)c1F : 1.66%

Briefly, remaining activity at 30 µM measured for NC(=O)c1cc(-c2ccc(F)cc2)c(N2CCC(Oc3ccnc(C(F)(F)F)c3)C2)cn1 (stereo not shown) : 1.28%

Briefly, remaining activity at 30 µM measured for NC(=O)c1cc(-c2ccc(F)cc2)c(OCCCOc2cccnc2)cn1 : 2.52%

Briefly, remaining activity at 30 µM measured for NC(=O)c1cc(-c2ccc(F)cc2)c(OCCOc2ccc(F)c(Br)c2)cn1 : 53.7%

Briefly, remaining activity at 30 µM measured for CC(CN1CCOCC1)Nc1cnc(C(N)=O)cc1-c1ccc(F)cc1 (stereo not shown) : -3.71%

Briefly, remaining activity at 30 µM measured for N#Cc1ccc(F)c(OCCOc2cnc(C(N)=O)cc2-c2ccc(F)cc2)c1 : -21.7%

Briefly, remaining activity at 30 µM measured for N#Cc1cccc(COc2cnc(C(N)=O)cc2-c2ccc(F)cc2)c1 : 1.5%

Briefly, remaining activity at 30 µM measured for CC(Oc1cnc(C(N)=O)cc1-c1ccc(F)cc1)c1ccncc1 (stereo not shown) : 1.4%

Briefly, remaining activity at 30 µM measured for NC(=O)c1cc(-c2ccc(F)cc2)c(NCCCN2CCOCC2)cn1 : -13.5%

Briefly, remaining activity at 30 µM measured for Cn1cc(COc2cnc(C(N)=O)cc2-c2ccc(F)cc2)cn1 : -0.46%

Briefly, remaining activity at 30 µM measured for CC1(C)CN(Cc2cnc(C(N)=O)cc2-c2ccc(F)cc2)CCO1 : -0.32%

----------
testSystem: rat mGlu2 (Rattus norvegicus (Rat), UniProt P31421)
methodSummary: mGlu2 Ca2+ flux assay
Type: cell-based
conditionLabel: amplitude of response in the presence of 30 μM test compound as percentage of maximal response to glutamate; read-out: rat mGlu2 Glu max
resultType: remaining activity at 30 µM (%)
Record the value in %, omitting the unit from your answer.

Record excerpt, results attached:
compound=N#Cc1cc(-c2ccc(F)cc2)c(OCc2ccncc2)cn1 resulttype="remaining activity at 30 µM" quantitativeresult=62
compound=COc1ccc(-c2cc(C(N)=O)ncc2OCc2cccnc2)c(F)c1 resulttype="remaining activity at 30 µM" quantitativeresult=1.36
compound=Cn1ccc(COc2cnc(C#N)cc2-c2ccc(F)cc2)n1 resulttype="remaining activity at 30 µM" quantitativeresult=11.1
compound="CC(Oc1cnc(C(N)=O)cc1-c1ccc(F)cc1)c1cccnc1 (centres unmarked)" resulttype="remaining activity at 30 µM" quantitativeresult=0.41
compound=NC(=O)c1cc(-c2ccc(F)cc2)c(NCC2CCOCC2)cn1 resulttype="remaining activity at 30 µM" quantitativeresult=-1.48

Briefly, remaining activity at 30 µM measured for CN(CCN1CCOCC1)c1cnc(C(N)=O)cc1-c1ccc(F)cc1 : 31

Briefly, remaining activity at 30 µM measured for CN(CCOCc1cncc(F)c1)c1cnc(C#N)cc1-c1ccc(F)cc1 : 33.3

Briefly, remaining activity at 30 µM measured for N#Cc1cc(-c2ccc(F)cc2)c(NCCCN2CCOCC2)cn1 : 49.2

Briefly, remaining activity at 30 µM measured for N#Cc1cccc(OCCOc2cnc(C(N)=O)cc2-c2ccc(F)cc2)c1 : 1.44

Briefly, remaining activity at 30 µM measured for N#Cc1ccc(F)c(COc2cnc(C(N)=O)cc2-c2ccc(F)cc2)c1 : 0.73

Briefly, remaining activity at 30 µM measured for Cc1cc(COc2cnc(C(N)=O)cc2-c2ccc(F)cc2)ccn1 : 1.17

----------
testSystem: rat mGlu2 (Rattus norvegicus (Rat), UniProt P31421)
methodSummary: mGlu2 Ca2+ flux assay
conditionLabel: Gα15 HEK293 cells stably expressing rat mGlu2; glutamate EC80; >10,000 = no plateau; >30,000 = no measurable activity
resultType: IC50

compound=Cn1cc(-c2cc(C(N)=O)ncc2OCc2ccc(C(F)(F)F)nc2)cn1 resulttype=IC50 result="> 10 µM"

Briefly, IC50 measured for N#Cc1cc(-c2ccc(F)cc2)c(OCCCN2CCC(F)(F)CC2)cn1 : > 10 µM

Briefly, IC50 measured for NC(=O)c1cc(-c2ccc(F)cc2)c(OCCOc2ccc(F)c(Br)c2)cn1 : > 10 µM
